# Test system: 2Sp-muMax20 (muMax20 with two 2,6-bis(methyl)pyridine Cys staples)
# assay.procedure: PBM 8-mer E-score (E-score (rank enrichment, -0.5 to 0.5)); higher = stronger preferential binding
Over roughly 33,000 sequences, “E-score (rank enrichment, -0.5 to 0.5)” has its median near -0.0043; the highest 2% begin near 0.24. The sample holds the highest values, similar sequences and a random draw of the others, so the mix is not that of the screen.
Provide the recorded PBM 8-mer E-score for the entries that follow.
// response body must contain only the number

Given CGGTTCCC , state its recorded PBM 8-mer E-score. -0.179

Same thing, different sequence: AATATAGC 0.168

Also ATGTACCA , if possible. -0.0255

Moving on to GATATATC 0.102

Follow-up entry: AATATGTG 0.191

# repeat for AAATACTA 0.183

// query: ATAATATG 0.185

What do you get for CCCGCCAG ? -0.131

Also AAGCTGAA ? 0.104

Note, next up: AATATATG 0.303

Subsequent entry: CAACCTCC -0.00017
